All values here come from patent US10633379B2.

# System under test: BRD4 (BDI_K57-E168) (Homo sapiens (Human), UniProt O60885)
# Protocol details: TR-FRET bromodomain binding assay, BRD4 BDI
# Setup conditions: mean Ki, calculated from IC50, probe Kd and probe concentration
# Method: A time-resolved fluorescence resonance energy transfer (TR-FRET) assay was used to determine the affinities of compounds of the Examples listed in Table 1 for each bromodomain of BRD4. His-tagged first (BDI: amino acids K57-E168) and second (BDII: amino acids E352-M457) bromodomains of BRD4 were expressed and purified. […] After a one-hour equilibration at room temperature, TR-FRET ratios were determined using an Envision multilabel plate reader (Ex 340, Em 495/520). […]
Assignment: determine reported pKi for the given compounds.
pKi is a log-scale quantity: -log10 of the concentration expressed in molar.

Quick one: pKi of Cc1cc(C(C)(C)O)cc(C)c1Oc1ccc(C(C)(C)O)cc1-c1cn(C)c(=O)c2[nH]c(C(=O)NC(C)(C)C)cc12 ? 6.76

Quick one: pKi of Cc1cc(F)cc(C)c1Oc1ccc(C(C)(O)CF)cc1-c1cn(C)c(=O)c2[nH]c(C(=O)NC(C)(C)C)cc12 (stereo not drawn) ? 6.30

Quick one: pKi of CCNC(=O)c1cc2c(-c3cc(C(C)(O)CC(C)C)cnc3Oc3c(C)cccc3C)cn(C)c(=O)c2[nH]1 (stereo not drawn) ? 6.35

Quick one: pKi of CCNC(=O)c1cc2c(-c3cc(C(C)(C)O)ccc3Oc3c(C)cccc3C)cn(C)c(=O)c2[nH]1 ? 6.39

Quick one: pKi of Cc1cccc(C(F)(F)F)c1Oc1ccc(C(C)(O)CO)cc1-c1cn(C)c(=O)c2[nH]c(C(=O)NC(C)(C)C)cc12 (stereo not drawn) ? 5.18

Quick one: pKi of CCNC(=O)c1cc2c(-c3cc(C(C)(C)O)cnc3Oc3c(C)ccc(Cl)c3C)cn(C)c(=O)c2[nH]1 ? 6.77

Quick one: pKi of CCNC(=O)c1cc2c(-c3cc(C(C)(C)O)cnc3Oc3c(C)cc(S(C)(=O)=O)cc3C)cn(C)c(=O)c2[nH]1 ? 6.30

Quick one: pKi of CCNC(=O)c1cc2c(-c3cc([C@@](C)(O)CO)ccc3Oc3c(C)cccc3C)cn(C)c(=O)c2[nH]1 (single isomer, unassigned) ? 6.47

Quick one: pKi of Cc1cc(F)cc(C)c1Oc1ccc(C(C)(C)O)cc1-c1cn(C)c(=O)c2[nH]c(C(=O)NC(C)(C)C(F)(F)F)cc12 ? 5.33

Quick one: pKi of CCNC(=O)c1cc2c(-c3cc(C(C)(O)CF)ccc3Oc3c(C)cc(Cl)cc3C)cn(C)c(=O)c2[nH]1 (stereo not drawn) ? 6.41

Quick one: pKi of Cc1cc(F)cc(C)c1Oc1ccc(C(C)(C)O)cc1-c1cn(C)c(=O)c2[nH]c(C(=O)NC3(C)CC3(F)F)cc12 (stereo not drawn) ? 5.45

Quick one: pKi of CCNC(=O)c1cc2c(-c3cc(C(C)(C)O)ccc3Oc3c(C)cc(C#N)cc3C)cn(C)c(=O)c2[nH]1 ? 6.38

###

# System under test: UniProt:O60885
# Protocol details: TR-FRET bromodomain binding assay, BRD4 BDII
# Setup conditions: mean Ki, calculated from IC50, probe Kd and probe concentration
Field 'label' (enum: MET / NOT MET). Set to MET when Ki is strictly under 2 nM; else NOT MET.

Is the reported Ki for CCNC(=O)c1cc2c(-c3cc(C(C)(C)O)ccc3Oc3c(C)cc(Cl)cc3C)cn(C)c(=O)c2[nH]1 strictly below 2 nM? MET

Is the reported Ki for CCNC(=O)c1cc2c(-c3cc(C(C)(O)CO)ccc3Oc3c(C)cc(F)cc3Cl)cn(C)c(=O)c2[nH]1 (centres unmarked) strictly below 2 nM? NOT MET

Is the reported Ki for CCNC(=O)c1cc2c(-c3cc(C(C)(C)O)cnc3Oc3c(C)cc(S(C)(=O)=O)cc3C)cn(C)c(=O)c2[nH]1 strictly below 2 nM? NOT MET

Is the reported Ki for Cc1cc(F)cc(C)c1Oc1ccc(C(C)(C)O)nc1-c1cn(C)c(=O)c2[nH]c(C(=O)NC(C)(C)C)cc12 strictly below 2 nM? NOT MET

Is the reported Ki for CCNC(=O)c1cc2c(-c3cc(C(C)(C)O)c(F)cc3Oc3c(C)cccc3C)cn(C)c(=O)c2[nH]1 strictly below 2 nM? MET

Is the reported Ki for CCNC(=O)c1cc2c(-c3cc(C(C)(O)CC)cnc3Oc3c(C)cccc3C)cn(C)c(=O)c2[nH]1 (centres unmarked) strictly below 2 nM? NOT MET

Is the reported Ki for CCNC(=O)c1cc2c(-c3cc(C(C)(O)CO)ccc3Oc3c(C)cccc3Cl)cn(C)c(=O)c2[nH]1 (centres unmarked) strictly below 2 nM? MET

Is the reported Ki for Cc1cccc(C(F)(F)F)c1Oc1ccc(C(C)(C)O)cc1-c1cn(C)c(=O)c2[nH]c(C(=O)NC(C)(C)C)cc12 strictly below 2 nM? NOT MET

Is the reported Ki for Cc1cccc(C)c1Oc1ncc(C(C)(C)O)cc1-c1cn(C)c(=O)c2[nH]c(C(=O)NC3(C)CC3(F)F)cc12 (centres unmarked) strictly below 2 nM? NOT MET

Is the reported Ki for CCNC(=O)c1cc2c(-c3cc(C(C)(C)O)ccc3Oc3c(C)cc(C#N)cc3C)cn(C)c(=O)c2[nH]1 strictly below 2 nM? MET

Is the reported Ki for CCNC(=O)c1cc2c(-c3cc(C(C)(C)O)cnc3Oc3c(C)cccc3C)cn(C)c(=O)c2[nH]1 strictly below 2 nM? NOT MET

Is the reported Ki for CCNC(=O)c1cc2c(-c3cc(C(C)(O)c4ccccc4)cnc3Oc3c(C)cccc3C)cn(C)c(=O)c2[nH]1 (centres unmarked) strictly below 2 nM? NOT MET

Is the reported Ki for Cc1cc(Cl)cc(C)c1Oc1ncc(C(C)(O)CF)cc1-c1cn(C)c(=O)c2[nH]c(C(=O)NC(C)(C)C)cc12 (centres unmarked) strictly below 2 nM? NOT MET

Is the reported Ki for Cn1cc(-c2cc(CO)ccc2Oc2ccccc2)c2cc[nH]c2c1=O [Compound Z, reference compound] strictly below 2 nM? NOT MET
